// provenance: patent US8530491B2

# run_description: Oral bioavailability and pharmacokinetics in male Sprague Dawley rats
# Format: in vivo
# measurement_parameters: rat, plasma, iv, i.v. dosing, read-out: i.v. t1/2 (converted)
parameter: half-life (h)

CCc1nc(N)nc(N)c1OCCCOc1cc(C)nc2ccccc12 ... 3.2
CCc1nc(N)nc(N)c1OCCCOc1ccnc2ccc(Cl)cc12 ... 24.3
CCc1nc(N)nc(N)c1OCCCOc1ccnc2ccc(F)cc12 ... 15.7
CCc1nc(N)nc(N)c1OCCCOc1cc(C)nc2cc(F)ccc12 ... 17.6

====

# System: P. falciparum Wild Type
# run_description: Anti-malarial activity against P. falciparum in vitro, wild type (Table 1)
# Format: cell-based, Plasmodium falciparum
# measurement_parameters: Plasmodium falciparum
parameter: IC50 (nM)

CCc1nc(N)nc(N)c1-c1ccc(Cl)cc1 [Pyrimethamine, pyrimethamine, reference compound] ... 79
CC1(C)N=C(N)N=C(N)N1c1ccc(Cl)cc1 [Cycloguanil, cycloguanil] ... 37

====

# run_description: Oral bioavailability and pharmacokinetics in male Sprague Dawley rats
# Type: in vivo
# measurement_parameters: rat, plasma, iv, i.v. dosing, read-out: i.v. CL(plasma)
clearance vs 70 mL/min/kg: at or above is True, below is False.

CCc1nc(N)nc(N)c1OCCCOc1cc(C)nc2cc(F)ccc12 [Compound P157] ... True
CCc1nc(N)nc(N)c1OCCCOc1ccccc1OCCCC(=O)O [Compound P135] ... False
CCc1nc(N)nc(N)c1OCCCOc1ccnc2ccc(Cl)cc12 [Compound P149] ... False
CCc1nc(N)nc(N)c1OCCCOc1cc(C)nc2ccccc12 [Compound P154] ... True

====

# run_description: Pharmacokinetics of P218 / pro-drug P195 in male Swiss outbred mice
# Format: in vivo
# measurement_parameters: male, Swiss outbred, mouse, plasma, oral, 20 mg/kg
parameter: bioavailability

CCc1nc(N)nc(N)c1OCCCOc1ccccc1CCC(=O)O ... ~50%

====

# System: P. chabaudi AS
# run_description: Standard 4-day Peters' test against P. chabaudi AS in mice
# Format: in vivo, Plasmodium chabaudi
# measurement_parameters: Plasmodium chabaudi, 96 h; oral, 4-day Peters' test, 90% reduction in parasitaemia
ED90 values by entry
parameter: ED90

CCc1nc(N)nc(N)c1OCCCOc1ccnc2ccc(F)cc12 ... 0.013 mg/kg
CCc1nc(N)nc(N)c1OCCCOc1ccccc1CCC(=O)O ... < 0.63 mg/kg
CCc1nc(N)nc(N)c1OCCCOc1ccnc2ccc(Cl)cc12 ... 0.02 mg/kg

====

# System: P. chabaudi AS
# run_description: Standard 4-day Peters' test against P. chabaudi AS in mice
# Assay type: in vivo, Plasmodium chabaudi
# measurement_parameters: Plasmodium chabaudi, 96 h; oral, 4-day Peters' test, 90% reduction in parasitaemia
parameter: ED90

CCOC(=O)CCCOc1ccccc1OCCCOc1c(N)nc(N)nc1CC ... < 0.63 mg/kg
CCc1nc(N)nc(N)c1OCCCOc1cc(C)nc2ccc(OCCCC(=O)O)cc12 ... > 29 mg/kg
CCOC(=O)CCCOc1ccc2nc(C)cc(OCCCOc3c(N)nc(N)nc3CC)c2c1 ... > 5 mg/kg

====

ED50 values by entry
# Tested on: P. chabaudi AS
# run_description: Standard 4-day Peters' test against P. chabaudi AS in mice
# Format: in vivo, Plasmodium chabaudi
# measurement_parameters: Plasmodium chabaudi, 96 h; oral, 4-day Peters' test, 50% reduction in parasitaemia
parameter: ED50

CCOC(=O)CCCOc1ccccc1OCCCOc1c(N)nc(N)nc1CC [Compound P217] ... < 0.63 mg/kg
CCc1nc(N)nc(N)c1OCCCOc1ccccc1CCC(=O)O [Compound P218] ... < 0.63 mg/kg
CCc1nc(N)nc(N)c1OCCCOc1cc(C)nc2ccc(OCCCC(=O)O)cc12 [Compound P169] ... > 29 mg/kg
CCOC(=O)CCCOc1ccc2nc(C)cc(OCCCOc3c(N)nc(N)nc3CC)c2c1 [Compound P219] ... > 5 mg/kg
